meta.source: ChEMBL document CHEMBL5584270

Target: Pyruvate carboxylase (Staphylococcus aureus (strain Mu50 / ATCC 700699), UniProt A0A0H3JRU9)
Test: Mixed type inhibition of Staphylococcus aureus pyruvate carboxylase assessed as inhibition constant pretreated with pyruvate followed by ATP, HCO3- and NADH addition by steady state kinetic analysis
pKi: −log10 of the molar value.
readout: pKi

What value of pKi has been reported for the following compound? `CN1C(=O)C(=O)N(CC(=O)c2cccs2)C1=O`
5.28

[I] O=C(O)CN1C(=O)C(=O)N(Cc2ccccc2)C1=O
[II] CCOC(=O)CN1C(=O)C(=O)N(Cc2cccs2)C1=O
Which of the two items, I and II , has the greater recorded pKi? Bench note: the answer is the label of the chosen record.
II
(II: 5.74, I: 5.05)

[A] CCOC(=O)CN1C(=O)C(=O)N(Cc2ccccc2)C1=O
[B] O=C1C(=O)N(c2ccccc2)C(=O)N1Cc1ccccc1
Smaller pKi value, A vs B ? Bench note: the answer is the label of the chosen record.
B

====

Molecular target: Pyruvate carboxylase (Staphylococcus aureus (strain Mu50 / ATCC 700699), UniProt A0A0H3JRU9)
Test: Inhibition of Staphylococcus aureus Pyruvate carboxylase using pyruvate, HCO3-, ATP and NADH as substrate assessed as oxaloacetate formation by measuring NADH oxidation by spectrophotometry based malate dehydrogenase coupled enzyme assay
pIC50: −log10 of the molar value.
readout: pIC50

What value of pIC50 has been reported for the following compound? `CCOC(=O)CN1C(=O)C(=O)N(CC(=O)OCC)C1=O`
5.05

`COc1ccc(N2C(=O)C(=O)N(Cc3ccccc3)C2=O)cc1` ?
4.77

`CCOC(=O)CN1C(=O)C(=O)N(CCc2cccs2)C1=O` ?
5.10

[a] CCOC(=O)CN1C(=O)C(=O)N(Cc2ccco2)C1=O
[b] O=C1C(=O)N(C2CCCc3ccccc32)C(=O)N1c1ccccc1 (stereo not given)
[c] O=C1C(=O)N(c2ccc(Br)cc2)C(=O)N1Cc1ccccc1
Task field, ranking: reported pIC50, descending order. Respond with an ordered listing of the labels, as requested.
a, b, c
(a: 4.92, b: 4.23, c: 3.54)

[P] COC(=O)CCN1C(=O)C(=O)N(Cc2ccccc2)C1=O
[Q] CCOC(=O)CN1C(=O)C(=O)N(Cc2cccs2)C1=O
[R] O=C(O)CN1C(=O)C(=O)N(Cc2ccccc2)C1=O
# rank by pIC50, ascending (min first) Respond with an ordered listing of the labels, as requested.
P, R, Q
(P: 4.17, R: 4.52, Q: 5.28)

====

Target: Pyruvate carboxylase (Staphylococcus aureus (strain Mu50 / ATCC 700699))
Test: Non-competitive inhibition of Staphylococcus aureus pyruvate carboxylase assessed as inhibition constant pretreated with ATP followed by pyruvate, HCO3- and NADH addition by steady state kinetic analysis
readout: Ki (µM)

What value of Ki has been reported for the following compound? `CCOC(=O)CN1C(=O)C(=O)N(Cc2cccs2)C1=O`
14

`O=C1C(=O)N(c2ccccc2)C(=O)N1Cc1ccccc1` ?
150

[I] O=C(O)CN1C(=O)C(=O)N(Cc2ccccc2)C1=O
[II] CN1C(=O)C(=O)N(CC(=O)c2cccs2)C1=O
Smaller Ki value, I vs II ? Bench note: the answer is the label of the chosen record.
II
(II: 38 µM, I: 140 µM)

====

Molecular target: Pyruvate carboxylase (Staphylococcus aureus (strain Mu50 / ATCC 700699))
Assay: Inhibition of Staphylococcus aureus Pyruvate carboxylase using pyruvate, HCO3-, ATP and NADH as substrate assessed as oxaloacetate formation by measuring NADH oxidation by spectrophotometry based malate dehydrogenase coupled enzyme assay
readout: IC50 (µM)

# example entries with known answers
What value of IC50 has been reported for the following compound? `O=C1C(=O)N(c2ccccc2)C(=O)N1CCc1cccs1`
92

`CCOC(=O)CCN1C(=O)C(=O)N(c2ccc(F)cc2)C1=O` ?
29

[P] CCOC(=O)CN1C(=O)C(=O)N(c2ccc(F)cc2)C1=O
[Q] CCOC(=O)CN1C(=O)C(=O)N(Cc2ccccc2)C1=O
[R] O=C1C(=O)N(c2ccccc2)C(=O)N1Cc1ccccc1
# rank by IC50, ascending (min first) Respond with an ordered listing of the labels, as requested.
P, Q, R
(P: 3.4 µM, Q: 7.3 µM, R: 64 µM)
